tested on: 349418-098-R-PDC complex spheroid viability; experiment: Anticancer human tumor 349418-098-R-PDC patient-derived lung adenocarcinoma cell line growth inhibition [RAS]; conditions: second compound 0.003 µM; first compound 0.1 µM; hits give low values
I'd appreciate it if you marked entries Met when viability, T/C is lower than 6% and Not met when it is not.

Solved entries (count: 3):
C[C@@H](NC(=O)c1ncnc(N)c1Cl)c1ncc(C(=O)Nc2cc(C(F)(F)F)c(Cl)cn2)s1 + CCn1c(-c2cc(N3CCN(C)CC3)cnc2C(C)OC)c2c3cc(ccc31)-c1csc(n1)CC(NC(=O)C1CC1C)C(=O)N1CCCC(N1)C(=O)OCC(C)(C)C2; Not met
CC(C)NCC(C(=O)N1CCN(c2ncnc3c2C(C)CC3O)CC1)c1ccc(Cl)cc1 (stereo not given) + CCn1c(-c2cccnc2C(C)OC)c2c3cc(ccc31)N1CCOC(CC(NC(=O)C(C(C)C)N(C)C(=O)C3(F)CCN(C(=O)C#CC(C)(C)N(C)C)CC3)C(=O)N3CCCC(N3)C(=O)OCC(C)(C)C2)C1; Not met
Nc1ccn(C2OC(CO)C(O)C2(F)F)c(=O)n1 (stereo not given) + CCn1c(-c2cc(N3CCN(C)CC3)cnc2C(C)OC)c2c3cc(ccc31)-c1csc(n1)CC(NC(=O)C1CC1C)C(=O)N1CCCC(N1)C(=O)OCC(C)(C)C2; Met

// next entry
Input line: Quick check: viability, T/C of NC1c2ccccc2OC12CCN(c1cnc3c(N4CCCc5ncccc54)n[nH]c3n1)CC2 (stereo not given) + CCn1c(-c2cccnc2C(C)OC)c2c3cc(ccc31)N1CCOC(CC(NC(=O)C(C(C)C)N(C)C(=O)C3(F)CCN(C(=O)C#CC(C)(C)N(C)C)CC3)C(=O)N3CCCC(N3)C(=O)OCC(C)(C)C2)C1 under 6%?
Output line: Not met

====

Readings of viability, T/C for the listed molecules
test system: 349418-098-R-PDC complex spheroid viability; assay: Anticancer human tumor 349418-098-R-PDC cell line growth inhibition [RAS]; conditions: second compound 0.00949 µM; first compound 10 µM; hits give low values;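 also: spheroids exposed to compound for seven days before viability readout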
Give the value in % but do not write % after it.

C[C@@H](NC(=O)c1ncnc(N)c1Cl)c1ncc(C(=O)Nc2cc(C(F)(F)F)c(Cl)cn2)s1 + CCn1c(-c2cc(N3CCN(C)CC3)cnc2C(C)OC)c2c3cc(ccc31)-c1csc(n1)CC(NC(=O)C1CC1C)C(=O)N1CCCC(N1)C(=O)OCC(C)(C)C2; 12.5
CC1(O)CCCC1n1c(=O)c(C(F)F)cc2cnc(NC3CCN(S(C)(=O)=O)CC3)nc21 (centres undefined) + CCn1c(-c2cccnc2C(C)OC)c2c3cc(ccc31)N1CCOC(CC(NC(=O)C(C(C)C)N(C)C(=O)C3(F)CCN(C(=O)C#CC(C)(C)N(C)C)CC3)C(=O)N3CCCC(N3)C(=O)OCC(C)(C)C2)C1; 3.42
CC(=O)OC12COC1CC(O)C1(C)C(=O)C(O)C3=C(C)C(OC(=O)C(O)C(NC(=O)OC(C)(C)C)c4ccccc4)CC(O)(C(OC(=O)c4ccccc4)C21)C3(C)C (centres undefined) + CCn1c(-c2cc(N3CCN(C)CC3)cnc2C(C)OC)c2c3cc(ccc31)-c1csc(n1)CC(NC(=O)C1CC1C)C(=O)N1CCCC(N1)C(=O)OCC(C)(C)C2; 17.1

For the next question, use this molecule.
viability, T/C reading for C[C@@H](NC(=O)c1ncnc(N)c1Cl)c1ncc(C(=O)Nc2cc(C(F)(F)F)c(Cl)cn2)s1 + CCn1c(-c2cccnc2C(C)OC)c2c3cc(ccc31)N1CCOC(CC(NC(=O)C(C(C)C)N(C)C(=O)C3(F)CCN(C(=O)C#CC(C)(C)N(C)C)CC3)C(=O)N3CCCC(N3)C(=O)OCC(C)(C)C2)C1 : 18.4

====

Readings of viability, T/C for the listed molecules
test system: 349418-098-R-PDC complex spheroid viability; test: Anticancer human tumor 349418-098-R-PDC cell line growth inhibition [RAS]; details: second compound 0.3 µM; first compound 3.16 µM; hits give low values;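 also: spheroids exposed to compound for seven days before viability readout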
Give the value in % but do not write % after it.

For orientation, consider the following solved cases.
CC(Nc1ccc2c(c1)OCCn1cc(N3C(=O)OCC3C(F)F)nc1-2)C(N)=O (centres undefined) + CCn1c(-c2cccnc2C(C)OC)c2c3cc(ccc31)N1CCOC(CC(NC(=O)C(C(C)C)N(C)C(=O)C3(F)CCN(C(=O)C#CC(C)(C)N(C)C)CC3)C(=O)N3CCCC(N3)C(=O)OCC(C)(C)C2)C1; 65
CC(C)NCC(C(=O)N1CCN(c2ncnc3c2C(C)CC3O)CC1)c1ccc(Cl)cc1 (centres undefined) + CCn1c(-c2cccnc2C(C)OC)c2c3cc(ccc31)N1CCOC(CC(NC(=O)C(C(C)C)N(C)C(=O)C3(F)CCN(C(=O)C#CC(C)(C)N(C)C)CC3)C(=O)N3CCCC(N3)C(=O)OCC(C)(C)C2)C1; 27.5
NC1c2ccccc2OC12CCN(c1cnc3c(N4CCCc5ncccc54)n[nH]c3n1)CC2 (centres undefined) + CCn1c(-c2cc(N3CCN(C)CC3)cnc2C(C)OC)c2c3cc(ccc31)-c1csc(n1)CC(NC(=O)C1CC1C)C(=O)N1CCCC(N1)C(=O)OCC(C)(C)C2; 104

For the next question, use this molecule.
viability, T/C reading for CCC(CC)c1cc(NC2CCC(N)C2)n2nccc2n1 (centres undefined) + CCn1c(-c2cc(N3CCN(C)CC3)cnc2C(C)OC)c2c3cc(ccc31)-c1csc(n1)CC(NC(=O)C1CC1C)C(=O)N1CCCC(N1)C(=O)OCC(C)(C)C2 : 2.38

====

test system: 349418-098-R-PDC complex spheroid viability; assay: Anticancer human tumor 349418-098-R-PDC cell line growth inhibition [RAS]; conditions: second compound 0.01 µM; first compound 0.0316 µM; hits give low values;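 also: spheroids exposed to compound for seven days before viability readout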
Quantity kind: viability, T/C (%)
Give the value in % but do not write % after it.

For orientation, consider the following solved cases.
CC(C)NCC(C(=O)N1CCN(c2ncnc3c2C(C)CC3O)CC1)c1ccc(Cl)cc1 (stereo not given) + C=CC(=O)N1CCN(c2nc(OCC3CCCN3C)nc3c(F)c(-c4nc(N)cc(C)c4C(F)(F)F)c(Cl)cc23)C(C)C1; 102
O=C(c1ccc(F)c(F)c1Nc1ccc(I)cc1F)N1CC(O)([C@@H]2CCCCN2)C1 + C=CC(=O)N1CCN(c2nc(OCC3CCCN3C)nc3c(F)c(-c4nc(N)cc(C)c4C(F)(F)F)c(Cl)cc23)C(C)C1; 24.3
CC(Nc1ccc2c(c1)OCCn1cc(N3C(=O)OCC3C(F)F)nc1-2)C(N)=O (stereo not given) + C=CC(=O)N1CCN(c2nc(OCC3CCCN3C)nc3c(F)c(-c4nc(N)cc(C)c4C(F)(F)F)c(Cl)cc23)C(C)C1; 82
CCC(CC)c1cc(NC2CCC(N)C2)n2nccc2n1 (stereo not given) + C=CC(=O)N1CCN(c2nc(OCC3CCCN3C)nc3c(F)c(-c4nc(N)cc(C)c4C(F)(F)F)c(Cl)cc23)C(C)C1; 110

viability, T/C reading for CCN1CCN(Cc2ccc(Nc3ncc(F)c(-c4cc(F)c5nc(C)n(C(C)C)c5c4)n3)nc2)CC1 + C=CC(=O)N1CCN(c2nc(OCC3CCCN3C)nc3c(F)c(-c4nc(N)cc(C)c4C(F)(F)F)c(Cl)cc23)C(C)C1 : 43.4

====

test system: 349418-098-R-PDC complex spheroid viability; experiment: Anticancer human tumor 349418-098-R-PDC cell line growth inhibition [RAS]; details: second compound 0.000949 µM; first compound 0.0316 µM; hits give low values;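 also: spheroids exposed to compound for seven days before viability readout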
Readings of viability, T/C for the listed molecules
Give the value in % but do not write % after it.

CC1(O)CCCC1n1c(=O)c(C(F)F)cc2cnc(NC3CCN(S(C)(=O)=O)CC3)nc21 (configuration not stated) + CCn1c(-c2cccnc2C(C)OC)c2c3cc(ccc31)N1CCOC(CC(NC(=O)C(C(C)C)N(C)C(=O)C3(F)CCN(C(=O)C#CC(C)(C)N(C)C)CC3)C(=O)N3CCCC(N3)C(=O)OCC(C)(C)C2)C1; 60.9

viability, T/C reading for O=C(c1ccc(F)c(F)c1Nc1ccc(I)cc1F)N1CC(O)([C@@H]2CCCCN2)C1 + CCn1c(-c2cccnc2C(C)OC)c2c3cc(ccc31)N1CCOC(CC(NC(=O)C(C(C)C)N(C)C(=O)C3(F)CCN(C(=O)C#CC(C)(C)N(C)C)CC3)C(=O)N3CCCC(N3)C(=O)OCC(C)(C)C2)C1 : 15.6

====

test system: 349418-098-R-PDC complex spheroid viability; assay: Anticancer human tumor 349418-098-R-PDC cell line growth inhibition [RAS]; details: second compound 0.003 µM; first compound 0.00949 µM; hits give low values;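 also: spheroids exposed to compound for seven days before viability readout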
Readings of viability, T/C for the listed molecules
Give the value in % but do not write % after it.

CCc1c2c(nc3ccc(O)cc13)-c1cc3c(c(=O)n1C2)COC(=O)[C@]3(O)CC + CCn1c(-c2cc(N3CCN(C)CC3)cnc2C(C)OC)c2c3cc(ccc31)-c1csc(n1)CC(NC(=O)C1CC1C)C(=O)N1CCCC(N1)C(=O)OCC(C)(C)C2; 13.4
CC1(C)CCC(Nc2ncc(C(F)(F)F)c(-c3c[nH]c4c(P(C)(C)=O)c(C#N)ccc34)n2)CN1 (centres undefined) + CCn1c(-c2cccnc2C(C)OC)c2c3cc(ccc31)N1CCOC(CC(NC(=O)C(C(C)C)N(C)C(=O)C3(F)CCN(C(=O)C#CC(C)(C)N(C)C)CC3)C(=O)N3CCCC(N3)C(=O)OCC(C)(C)C2)C1; 14.4
CCc1c2c(nc3ccc(O)cc13)-c1cc3c(c(=O)n1C2)COC(=O)[C@]3(O)CC + CCn1c(-c2cccnc2C(C)OC)c2c3cc(ccc31)N1CCOC(CC(NC(=O)C(C(C)C)N(C)C(=O)C3(F)CCN(C(=O)C#CC(C)(C)N(C)C)CC3)C(=O)N3CCCC(N3)C(=O)OCC(C)(C)C2)C1; 13.3

For the next question, use this molecule.
viability, T/C reading for CC1(C)CCC(Nc2ncc(C(F)(F)F)c(-c3c[nH]c4c(P(C)(C)=O)c(C#N)ccc34)n2)CN1 (centres undefined) + CCn1c(-c2cc(N3CCN(C)CC3)cnc2C(C)OC)c2c3cc(ccc31)-c1csc(n1)CC(NC(=O)C1CC1C)C(=O)N1CCCC(N1)C(=O)OCC(C)(C)C2 : 14.4
